Known half-life of a selection of compounds
assay: Half life to reach the blood concentration was determined in dogs after oral administration (8 mg/kg) as a 0.05 M citric acid solution.; format: ADME, organism-based, Canis lupus familiaris; conditions: dog

{"columns": ["Smiles str", "Result"],
 "data": [
  ["CCCc1cc(CN2CCN(C[C@@H](O)[C@H](Cc3ccccc3)NC(=O)O[C@@H]3CCS(=O)(=O)[C@@H]3C(C)C)[C@H](C(=O)NC(C)(C)C)C2)ccn1", "21 min"]
]}

Next compound, please.
Determine its reported half-life: Cc1cc(CN2CCN(C[C@@H](O)[C@H](Cc3ccccc3)NC(=O)O[C@@H]3CCS(=O)(=O)[C@@H]3C(C)C)[C@H](C(=O)NC(C)(C)C)C2)cc(C)n1
28 min

====

experiment: Maximum time taken to reach maximum blood concentration was determined in dogs after oral administration (10 mg/kg) as a 0.05 M citric acid solution.; type: ADME, organism-based, Canis lupus familiaris; conditions: dog
Readout label: Tmax (min)
Field: numeric (min). Do not append units.

{"columns": ["Smiles str", "Tmax (min)"],
 "data": [
  ["CC(C)[C@@H]1[C@H](OC(=O)N[C@@H](Cc2ccccc2)[C@H](O)CN2CCN(Cc3ccncc3)C[C@H]2C(=O)NC(C)(C)C)CCS1(=O)=O", 25],
  ["CCc1cc(CN2CCN(C[C@@H](O)[C@H](Cc3ccccc3)NC(=O)O[C@@H]3CCS(=O)(=O)[C@@H]3C(C)C)[C@H](C(=O)NC(C)(C)C)C2)ccn1", 20],
  ["Cc1cc(CN2CCN(C[C@@H](O)[C@H](Cc3ccccc3)NC(=O)O[C@@H]3CCS(=O)(=O)[C@@H]3C(C)C)[C@H](C(=O)NC(C)(C)C)C2)ccn1", 10]
]}

Okay, next one:
Determine from records and report Tmax for CCc1cc(CN2CCN(C[C@@H](O)[C@H](Cc3ccccc3)NC(=O)O[C@@H]3CCS(=O)(=O)[C@@H]3C(C)C)[C@H](C(=O)NC(C)(C)C)C2)cc(CC)n1
25

====

Let's look at some compounds and their measured half-life.
test: Half life to reach the blood concentration was determined in dogs after oral administration (10 mg/kg) as a 0.05 M citric acid solution.; format: ADME, organism-based, Canis lupus familiaris; conditions: dog
API: value field is a number in h; no unit string.

{"columns": ["Smiles str", "half-life [h]"],
 "data": [
  ["CCc1cc(CN2CCN(C[C@@H](O)[C@H](Cc3ccccc3)NC(=O)O[C@@H]3CCS(=O)(=O)[C@@H]3C(C)C)[C@H](C(=O)NC(C)(C)C)C2)ccn1", 1.52]
]}

For the compound CCc1cc(CN2CCN(C[C@@H](O)[C@H](Cc3ccccc3)NC(=O)O[C@@H]3CCS(=O)(=O)[C@@H]3C(C)C)[C@H](C(=O)NC(C)(C)C)C2)cc(CC)n1 , give its reported half-life.
0.6

State, in one line, measured half-life of CC(C)[C@@H]1[C@H](OC(=O)N[C@@H](Cc2ccccc2)[C@H](O)CN2CCN(Cc3ccncc3)C[C@H]2C(=O)NC(C)(C)C)CCS1(=O)=O
0.4

Read the entry Cc1cc(CN2CCN(C[C@@H](O)[C@H](Cc3ccccc3)NC(=O)O[C@@H]3CCS(=O)(=O)[C@@H]3C(C)C)[C@H](C(=O)NC(C)(C)C)C2)ccn1 and write its reported half-life.
2.02

====

Each item that follows carries a reported Cmax.
assay: Maximum plasma concentration in dogs after oral administration (10 mg/kg) as a 0.05 M citric acid solution.; assay type: ADME, organism-based, Canis lupus familiaris; parameters: dose 10 mg/kg, route oral; conditions: dog
Dear colleague, please return just the value in µM, with no unit written.

{"columns": ["Smiles str", "Cmax (µM)"],
 "data": [
  ["CC(C)[C@@H]1[C@H](OC(=O)N[C@@H](Cc2ccccc2)[C@H](O)CN2CCN(Cc3ccncc3)C[C@H]2C(=O)NC(C)(C)C)CCS1(=O)=O", 6.7],
  ["Cc1cc(CN2CCN(C[C@@H](O)[C@H](Cc3ccccc3)NC(=O)O[C@@H]3CCS(=O)(=O)[C@@H]3C(C)C)[C@H](C(=O)NC(C)(C)C)C2)ccn1", 8.6],
  ["CCc1cc(CN2CCN(C[C@@H](O)[C@H](Cc3ccccc3)NC(=O)O[C@@H]3CCS(=O)(=O)[C@@H]3C(C)C)[C@H](C(=O)NC(C)(C)C)C2)cc(CC)n1", 3]
]}

Let us examine a further case.
Read the entry CCc1cc(CN2CCN(C[C@@H](O)[C@H](Cc3ccccc3)NC(=O)O[C@@H]3CCS(=O)(=O)[C@@H]3C(C)C)[C@H](C(=O)NC(C)(C)C)C2)ccn1 and write its reported Cmax.
4.1

====

test: Area under curve was determined in dogs after oral administration (10 mg/kg) as a 0.05 M citric acid solution.; assay type: ADME, organism-based, Canis lupus familiaris; conditions: dog, in vivo
Property: AUC; scope: individual compounds
Report the value in µM·h with no unit label.

{"columns": ["Smiles str", "AUC [µM·h]"],
 "data": [
  ["CCc1cc(CN2CCN(C[C@@H](O)[C@H](Cc3ccccc3)NC(=O)O[C@@H]3CCS(=O)(=O)[C@@H]3C(C)C)[C@H](C(=O)NC(C)(C)C)C2)ccn1", 5.4],
  ["CC(C)[C@@H]1[C@H](OC(=O)N[C@@H](Cc2ccccc2)[C@H](O)CN2CCN(Cc3ccncc3)C[C@H]2C(=O)NC(C)(C)C)CCS1(=O)=O", 4.3],
  ["CCc1cc(CN2CCN(C[C@@H](O)[C@H](Cc3ccccc3)NC(=O)O[C@@H]3CCS(=O)(=O)[C@@H]3C(C)C)[C@H](C(=O)NC(C)(C)C)C2)cc(CC)n1", 2.9]
]}

Here's the next entry for you.
Give AUC for the following compound: Cc1cc(CN2CCN(C[C@@H](O)[C@H](Cc3ccccc3)NC(=O)O[C@@H]3CCS(=O)(=O)[C@@H]3C(C)C)[C@H](C(=O)NC(C)(C)C)C2)ccn1
7.4
